Protocol Summary: Phase I calcium acetate interaction study
Format: in vivo, human
Run Parameters: human, plasma, oral, 300 mg, Vadadustat 300 mg alone, immediately after breakfast
Assay Metric: Cmax
Units required after the number.

Could you tell me which Cmax is on file for O=C(O)CNC(=O)c1ncc(-c2cccc(Cl)c2)cc1O ? 21900 ng/mL

---

Protocol Summary: Phase I calcium acetate interaction study
Type: in vivo, human
Run Parameters: human, plasma, oral, 300 mg, Concomitant administration with calcium acetate 1334 mg after breakfast
Assay Metric: Cmax (ng/mL)
Kindly provide the numeric value in ng/mL only, without the unit symbol.

Could you tell me which Cmax is on file for O=C(O)CNC(=O)c1ncc(-c2cccc(Cl)c2)cc1O ? 11300

---

Protocol Summary: Plasma pharmacokinetics, 150/300/600 mg once daily, first day
Assay type: in vivo
Run Parameters: male, human, 300 mg once daily, healthy adult men
Assay Metric: half-life
Units required after the number.

Could you tell me which half-life is on file for O=C(O)CNC(=O)c1ncc(-c2cccc(Cl)c2)cc1O [Compound 1] ? 6.14 h

---

Protocol Summary: Phase 1 oral iron interaction study, Cohort 1 (after meal): sodium ferrous citrate, ferric citrate hydrate
Assay type: in vivo, human
Run Parameters: male, human, plasma, oral, 150 mg with sodium ferrous citrate (200 mg iron), read-out: AUC(0-last), LS geometric mean
Assay Metric: AUC(0-t)
Units required after the number.

Could you tell me which AUC(0-t) is on file for O=C(O)CNC(=O)c1ncc(-c2cccc(Cl)c2)cc1O [Compound 1] ? 44400 ng·h/mL

---

Protocol Summary: Phase I interaction study Part 3 Arm 1: atorvastatin
Format: in vivo, human
Run Parameters: both sexes, human, plasma, oral, 40 mg; heading: AUCtau, Geometric LSM
Assay Metric: AUC (ng·h/mL)
Kindly provide the numeric value in ng·h/mL only, without the unit symbol.

Molecule	Result Number
CC(C)c1c(C(=O)Nc2ccccc2O)c(-c2ccccc2)c(-c2ccc(F)cc2)n1CC[C@@H](O)C[C@@H](O)CC(=O)O [o-hydroxy atorvastatin]	96

We next turn to a different molecule, shown below.
Could you tell me which AUC is on file for CC(C)c1c(C(=O)Nc2ccc(O)cc2)c(-c2ccccc2)c(-c2ccc(F)cc2)n1CC[C@@H](O)C[C@@H](O)CC(=O)O [p-hydroxy atorvastatin] ? 8.92

---

Protocol Summary: Phase I interaction study Part 2 Arm 1: sulfasalazine
Assay type: in vivo, human
Run Parameters: both sexes, human, in vivo, 500 mg
Assay Metric: AUC(0-inf) (ng·h/mL)
Kindly provide the numeric value in ng·h/mL only, without the unit symbol.

Compound	Result Number
O=C(O)c1cc(/N=N/c2ccc(S(=O)(=O)Nc3ccccn3)cc2)ccc1O [Sulfasalazine, sulfasalazine, reference compound]	82700
Nc1ccc(O)c(C(=O)O)c1	247

We next turn to a different compound, shown below.
Could you tell me which AUC(0-inf) is on file for Nc1ccc(S(=O)(=O)Nc2ccccn2)cc1 ? 42800

---

Protocol Summary: Phase 1 oral iron interaction study, Cohort 1 (after meal): sodium ferrous citrate, ferric citrate hydrate
Format: in vivo, human
Run Parameters: male, human, plasma, oral, 150 mg, Compound 1 150 mg alone, read-out: t1/2, LS geometric mean (converted)
Assay Metric: half-life (h)
Kindly provide the numeric value in h only, without the unit symbol.

Could you tell me which half-life is on file for O=C(O)CNC(=O)c1ncc(-c2cccc(Cl)c2)cc1O ? 5.32
